- assayedSystem: T1, Prostate specific membrane antigen (PSMA) (human, UniProt Q04609 1-750)
- T1 construct: whole, on cells; The background says that PSMA is a homodimer when enzymatically active; also called glutamate carboxypeptidase II; GCPII
- T1 sequence (Q04609 whole entry): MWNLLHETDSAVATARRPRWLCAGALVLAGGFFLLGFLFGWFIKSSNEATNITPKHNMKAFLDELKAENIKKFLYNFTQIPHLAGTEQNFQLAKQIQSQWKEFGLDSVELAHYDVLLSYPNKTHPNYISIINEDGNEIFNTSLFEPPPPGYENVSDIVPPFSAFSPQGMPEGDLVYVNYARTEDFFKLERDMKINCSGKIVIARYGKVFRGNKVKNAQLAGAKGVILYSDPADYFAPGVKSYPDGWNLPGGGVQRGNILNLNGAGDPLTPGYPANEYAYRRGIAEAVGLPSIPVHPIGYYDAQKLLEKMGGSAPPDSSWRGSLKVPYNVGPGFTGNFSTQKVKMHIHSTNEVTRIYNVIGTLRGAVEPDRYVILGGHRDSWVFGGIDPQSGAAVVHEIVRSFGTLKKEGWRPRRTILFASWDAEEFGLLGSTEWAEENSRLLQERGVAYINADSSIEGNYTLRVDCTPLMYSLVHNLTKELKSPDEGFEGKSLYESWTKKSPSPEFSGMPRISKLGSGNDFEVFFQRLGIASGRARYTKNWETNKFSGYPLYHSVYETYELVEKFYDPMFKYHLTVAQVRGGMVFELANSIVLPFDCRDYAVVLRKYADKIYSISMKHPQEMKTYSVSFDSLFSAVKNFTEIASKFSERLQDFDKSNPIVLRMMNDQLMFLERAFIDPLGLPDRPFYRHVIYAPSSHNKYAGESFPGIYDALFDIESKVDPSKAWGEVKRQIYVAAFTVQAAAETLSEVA
- assayInfo: flow cytometry on LNCAP cells, FITC anti-human IgG
- Experimental: Pre-confluent LNCAP cells at 80-90% confluence were washed and detached from the plates with trypsin prior to 1-hour incubation at 37° C., 5% CO₂ in the flasks to restore cell surface proteins. […] Finally, cells were washed, fixed and FITC fluorescence associated to the antibody bound to the cells was measured by flow cytometry (GUAVA 8HT Cytometer). Data was analyzed using Incyte GuavaSoft 2.7 software (Merck-Millipore). […]
measuredProperty: EC50 (µg/mL)
Lab book: enter the figure in µg/mL, no units written.

3F11-var 15 (antibody, human IgG1, kappa, V domains shown, Expressed from pXC-IgG1zadeltaK and pXC-Kappa vectors) VH: QVQLVQSGAEVKKPGASVKVSCKASGYTFTYFDINWLRQAPGQGLEWMGGISPGDGNVNYAQKFQGRVTLTIDTSTSTAYMELSSLRSEDTAVYYCARDGNFPYYAMDSWGQGTLVTVSS VL: DIVMTQSPLSLPVTPGEPASISCRSSQSLVHSSGQTYLHWYQQKPGQSPQLLIYTVSNRASGVPDRFSGSGSGTDFTLKISRVEAEDVGTYYCSQSTHVPTFGGGTKVEIKR
0.244

Turning now to a further binder:
Entry 3F11-var 5 (antibody, human IgG1, kappa, V domains shown, Expressed from pXC-IgG1zadeltaK and pXC-Kappa vectors) VH: QVQLVQSGAEVKKPGASVKVSCKASGYTFTYFDINWLRQAPGQGLEWMGGISPGDGNTNYNENFKGRVTLTIDKSTSTAYMELSSLRSEDTAVYFCARDGNFPYYAMDSWGQGTLVTVSS VL: DIVMTQSPLSLPVTPGEPASISCRSSQSLVHSNGQTYLHWYLQKPGQSPQLLIYTVSNRFSGVPDRFSGSGSGTDFTLKISRVEAEDVGVYYCSQSTHVPTFGGGTKVEIKR ; EC50 = 0.304
